Data origin: patent US9957271B2

Exercise: for every item that follows, state its recorded Emax.
Target or test system: UniProt:Q96EB6
Sequence (Q96EB6 whole entry): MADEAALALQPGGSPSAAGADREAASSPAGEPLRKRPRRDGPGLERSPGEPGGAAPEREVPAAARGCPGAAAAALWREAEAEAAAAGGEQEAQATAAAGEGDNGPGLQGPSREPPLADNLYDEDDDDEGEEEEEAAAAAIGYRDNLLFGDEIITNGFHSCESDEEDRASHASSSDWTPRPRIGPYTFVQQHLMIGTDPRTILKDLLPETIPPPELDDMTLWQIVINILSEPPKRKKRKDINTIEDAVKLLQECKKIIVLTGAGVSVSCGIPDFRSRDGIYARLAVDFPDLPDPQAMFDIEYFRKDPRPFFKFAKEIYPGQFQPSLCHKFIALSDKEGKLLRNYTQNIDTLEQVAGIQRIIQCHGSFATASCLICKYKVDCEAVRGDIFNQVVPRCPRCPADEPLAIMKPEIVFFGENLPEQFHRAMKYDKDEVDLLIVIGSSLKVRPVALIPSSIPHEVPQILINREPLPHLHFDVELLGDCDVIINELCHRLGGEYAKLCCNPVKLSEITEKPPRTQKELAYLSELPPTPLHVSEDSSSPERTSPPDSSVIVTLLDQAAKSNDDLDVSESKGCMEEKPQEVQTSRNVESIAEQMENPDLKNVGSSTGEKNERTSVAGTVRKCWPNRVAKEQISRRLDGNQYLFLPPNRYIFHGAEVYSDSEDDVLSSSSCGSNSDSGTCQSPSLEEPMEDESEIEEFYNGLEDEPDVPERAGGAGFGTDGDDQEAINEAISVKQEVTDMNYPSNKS
Assay comment: Trp mass spectrometry assay of SIRT1 activity
Type: biochemical
Measurement parameters: Trp assay; percent maximum fold activation; read-out: Trp % Fold Act

Examples from the recorded data:
CN(C)c1cccc(NC(=O)c2cnc3ccc(N4CC[C@H](F)C4)nn23)n1 [Compound 911]	≥ 350%
CO[C@H]1CCN(c2ccc3ncc(C(=O)Nc4ccccn4)n3n2)C1 [Compound 933]	< 350%
COc1cc(NC(=O)c2cnc3ccc(N4CC[C@H](F)C4)nn23)ncn1 [Compound 922]	< 350%
O=C(Nc1cnc2ccc(-c3ccccc3OC(F)(F)F)nn12)c1cnccn1 [Compound 314]	< 350%
O=C(Nc1ccncn1)c1cnc2ccc(N3CC(F)(F)C3)nn12 [Compound 921]	< 350%
O=C(Nc1cncc(F)c1)c1cnc2ccc(N3CC[C@H](O)C3)nn12 [Compound 985]	< 350%
O=C(Nc1cnc2ccc(-c3ccccc3Cl)nn12)c1cccc(OCC(O)CO)n1 (centres unmarked) [Compound 309]	< 350%
O=C(Nc1ccncc1F)c1cnc2ccc(-c3ccccc3OC[C@H](O)CO)nn12 [Compound 831]	< 350%

// input: 4 molecules below; output: Emax for each
1. Cc1cccnc1C(=O)Nc1cnn2ccc(-c3ccccc3C(F)(F)F)nc12 [Compound 746]
2. Cc1cccc(NC(=O)c2c(C)nc3ccc(-c4cccc(OC[C@H](O)CO)c4)nn23)n1 [Compound 790]
3. Cc1nc2c(OC[C@H](O)CO)cc(-c3ccccc3C(F)(F)F)nn2c1C(=O)Nc1ccccn1 [Compound 842]
4. O=C(Nc1cnn2ccc(-c3ccccc3C(F)(F)F)nc12)c1ccncn1 [Compound 254]

## Result
1. < 350%
2. ≥ 350%
3. ≥ 350%
4. < 350%
